# Method: Particle size and PDI of lipid nanoparticles by dynamic light scattering
# Type: physicochemical
# Experimental parameters: lipid nanoparticles with luciferase mRNA; ionizable lipid/cholesterol/DSPC/DMG-PEG2000 50/38.5/10/1.5 mol%
# Procedure: […] The particle size and particle size dispersity index (PDI) of the prepared lipid nanoparticles were measured using a Zetasizer Pro (purchased from Malvern Instruments Ltd) and a DynaPro NanoStar (purchased from Wyatt) dynamic light scattering instrument. […] This parameter was measured by the method of Quant-it™ RiboGreen RNA Assay (purchased from Invitrogen). […]
Below, each entry is listed alongside its reported Particle-size distribution (PDI).

[
  {
    "Compound": "CCCCCCCCCC(=O)OCCC(C)(C)CCCCN(CCO)CCCCCCC(=O)OCCC(CCCCCCC)CCCCCCC [102b]",
    "Particle-size distribution (PDI)": 0.16
  },
  {
    "Compound": "CCCCCCCCCCC(=O)OCCCC(C)(C)CCCN(CCCCO)CCCCCCC(=O)OCC(CCCCCCCCC)CCCCCCCCC [115b]",
    "Particle-size distribution (PDI)": 0.12
  },
  {
    "Compound": "CCCCCCCCCC(=O)OCCC(C)(C)CCCCN(CCCCO)CCCCCCCC(=O)OCC(CCCCCCC)CCCCCCC [59b]",
    "Particle-size distribution (PDI)": 0.12
  },
  {
    "Compound": "CCCCCCCCCC(=O)OCCC(C)(C)CCCCCN(CCCCO)CCCCCCC(=O)OCCC(CCCCCCCC)CCCCCCCC [109b]",
    "Particle-size distribution (PDI)": 0.13
  },
  {
    "Compound": "CCCCCCCCCC(=O)OCC(C)(C)CCCCCN(CCCO)CCCCCCCC(=O)OC(CCCCCCCC)CCCCCCCC",
    "Particle-size distribution (PDI)": 0.013
  },
  {
    "Compound": "CCCCCCCCCCC(=O)OCC(C)(C)CCCCCN(CCCO)CCCCCCCCC(=O)OCC(CCCCCCC)CCCCCCC [79b]",
    "Particle-size distribution (PDI)": 0.15
  },
  {
    "Compound": "CCCCCCCCOC(=O)OCC(C)(C)CCCCCN(CCCCCCOC(=O)CC(CCCCCCCC)CCCCCCCC)C(=O)SCCCCN(C)C [50b]",
    "Particle-size distribution (PDI)": 0.13
  }
]
